Attribution: ChEMBL document CHEMBL4715919

# assayedTarget: Sodium/glucose cotransporter 2 (Homo sapiens)
# Sequence (P31639 whole entry): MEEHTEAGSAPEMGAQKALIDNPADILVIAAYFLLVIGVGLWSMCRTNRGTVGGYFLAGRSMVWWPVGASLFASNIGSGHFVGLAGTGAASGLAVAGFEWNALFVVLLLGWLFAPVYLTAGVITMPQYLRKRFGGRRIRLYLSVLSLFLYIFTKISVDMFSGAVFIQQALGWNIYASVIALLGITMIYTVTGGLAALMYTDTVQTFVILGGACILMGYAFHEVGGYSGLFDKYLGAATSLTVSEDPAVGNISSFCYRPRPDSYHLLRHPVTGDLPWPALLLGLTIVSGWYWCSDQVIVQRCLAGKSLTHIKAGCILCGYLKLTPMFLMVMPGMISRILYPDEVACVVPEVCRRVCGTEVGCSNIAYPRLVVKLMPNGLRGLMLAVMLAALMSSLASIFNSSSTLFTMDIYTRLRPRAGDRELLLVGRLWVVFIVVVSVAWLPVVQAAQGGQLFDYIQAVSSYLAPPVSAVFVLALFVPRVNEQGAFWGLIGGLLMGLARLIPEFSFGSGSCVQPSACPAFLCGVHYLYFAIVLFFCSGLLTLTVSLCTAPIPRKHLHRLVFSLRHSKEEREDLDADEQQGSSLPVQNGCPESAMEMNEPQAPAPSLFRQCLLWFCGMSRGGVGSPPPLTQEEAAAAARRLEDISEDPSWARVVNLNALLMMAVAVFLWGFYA
# testDescription: Inhibition of human SGLT2 expressed in COS7 cells
# Type: cell-based
experimentalReadout: IC50

Request: Can you look up the measured IC50 of `CSc1ccc(Cc2c(C(F)(F)F)n[nH]c2O)cc1` for me?
Result: > 1000 µM
